TESTED SYSTEM: A®1-42 peptide (Homo sapiens, UniProt P05067)
Construct: A®1-42 lyophilized powder (Bachem) was reconstituted in hexafluoroisopropanol (HFIP) to 1 mM; purchased Bachem
Sequence (P05067 672-713): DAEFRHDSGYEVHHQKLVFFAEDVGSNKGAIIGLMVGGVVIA
ASSAY: Thioflavin T spectrofluorescence assay (ThT-assay), inhibition of A®1-42 aggregation
Format: biochemical
CONDITION SET: 330 µM small molecule, 33 µM A®1-42 (molar ratio 10:1), 10 µM ThT, 12.8% DMSO in PBS, 24 hrs at 37° C.; mean +/- SD of two independent experiments
Method: The capacity of the compounds of the invention to inhibit the aggregation of A®1-42 peptide was determined by using the thioflavin T spectrofluorescence assay (ThT-assay) as described below. […] An A®1-42 peptide film was dissolved in DMSO to reach 400 ? […] The solutions were then incubated for 24 hrs at 37° C., and the spectrofluorescence (relative fluorescence units; RFU) read in six replicates in black 384-well assay plates (Perkin-Elmer) on a Perkin-Elmer FluoroCount spectrofluorometer. […]
Here, each record is paired with measured inhibition at 330 µM data.

# annotated cases, reported inhibition at 330 µM shown
COMPOUND	MEASUREMENT
FC(F)(F)c1ccc(Nc2cncc(NCC3CCNCC3)c2)cc1 [Example 10]	73.9%
c1ncc(NCC2CCNCC2)cc1NCC1CCNCC1 [Example 8]	69.5%
Fc1cc(F)cc(Nc2cncc(NCC3CCNCC3)c2)c1 [Example 9]	55%

We next turn to a different compound, shown below.
-- ask Give its inhibition at 330 µM value. Item: FC(F)(F)c1ccc(Nc2cncc(NCC3CCNCC3)c2)cn1 [Example 1]
-- reply 38%
